testedTarget: T1, Human EphA2 (Ecto) (Human, UniProt P29317 24-537)
T1 construct: extracellular domain; in-house)
T1 sequence (P29317 24-537): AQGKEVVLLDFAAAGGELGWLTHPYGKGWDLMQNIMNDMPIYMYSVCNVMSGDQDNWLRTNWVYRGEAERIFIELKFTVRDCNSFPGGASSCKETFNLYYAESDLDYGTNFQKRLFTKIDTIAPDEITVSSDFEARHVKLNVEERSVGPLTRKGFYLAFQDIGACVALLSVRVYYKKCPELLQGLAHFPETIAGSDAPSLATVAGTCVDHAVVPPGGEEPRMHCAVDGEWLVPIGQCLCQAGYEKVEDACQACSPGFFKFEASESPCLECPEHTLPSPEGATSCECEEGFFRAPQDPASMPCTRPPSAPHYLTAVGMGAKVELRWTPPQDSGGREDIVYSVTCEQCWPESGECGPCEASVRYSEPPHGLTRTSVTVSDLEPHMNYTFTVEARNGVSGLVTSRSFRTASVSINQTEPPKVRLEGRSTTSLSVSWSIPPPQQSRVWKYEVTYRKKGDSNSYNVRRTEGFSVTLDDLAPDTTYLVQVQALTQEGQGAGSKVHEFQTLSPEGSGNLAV
experiment: FP competition; tracer Reference Compound C
Method: Peptides without a fluorescent tag were tested in competition with a peptide with a fluorescent tag and a known Kd (Table 2). Peptides were diluted to an appropriate concentration in assay buffer as described in the direct binding assay with a maximum of 5% DMSO, then serially diluted 1 in 2. […] Measurements were conducted as for the direct binding assay, however the gain was determined prior to the first measurement. […]
pKi: −log10 of the molar value. Starred links: 1 amine or outer side, 2 acyl side, 3 side chain; linkers in the order of their positions; H or OH if unused. Positions of bridges follow the written chain, without caps; N, C: chain ends. No end group written: not given here. TATA = O=C(CC[*:1])N1CN(C(=O)CC[*:2])CN(C(=O)CC[*:3])C1
Given measured pKi, output Fulfilled if it is greater than or equal to 7 and Not fulfilled if not.

binder: ACPMVNPLCLHPGWICA (linker 2-9-16 via TATA (inferred)) [Bicycle Compound Number 53 (TATA scaffold), ACPMVNPLCLHPGWICA]
assignedCategory: Fulfilled
--
binder: ACQSCWAYPDTYCA (linker 2-5-13 via TATA) [Bicycle Compound Number 39 (TATA scaffold), ACQSCWAYPDTYCA]
assignedCategory: Not fulfilled
--
binder: ACPLVNPLCLHPGWRCA (linker 2-9-16 via TATA (inferred)) [Bicycle Compound Number 55 (TATA scaffold), ACPLVNPLCLHPGWRCA]
assignedCategory: Fulfilled
--
binder: ACPLVNPLCLEPGWTCA (linker 2-9-16 via TATA) [Bicycle Compound Number 84 (TATA scaffold), ACPLVNPLCLEPGWTCA]
assignedCategory: Fulfilled
--
binder: Ac-CPLVNPLCLHPGWTCLHG (linker 1-8-15 via TATA) [Bicycle Compound Number 74 (TATA scaffold), Ac-CPLVNPLCLHPGWTCLHG]
assignedCategory: Fulfilled

# input for lookup
Item ACVPDRRCAFRDVCLTG (linker 2-8-14 via TATA) [Bicycle Compound Number 28 (TATA scaffold), ACVPDRRCAFRDVCLTG] with pKi of 7 or above? Not fulfilled
